// provenance: ChEMBL document CHEMBL6092197

assay: Selectivity index, ratio of IC50 for human HaCaT cells to IC50 for human HCT-116 cells; type: toxicity; details: HaCaT cells versus HCT-116 cells, read-out: Ratio IC50
METRIC: selectivity ratio

NS(=O)(=O)c1cc(C(=O)N/N=C/c2ccc(O)cc2O)c(SCc2ccc(F)cc2)cc1Cl = 2.9
NS(=O)(=O)c1cc(C(=O)N/N=C/c2ccc(Br)cc2O)c(SCc2ccc(F)cc2)cc1Cl = 5.5
NNC(=O)c1cc(S(N)(=O)=O)c(Cl)cc1SCc1ccc(F)cc1 = 3.6

Next item in the queue.
Query: Entry under review: `NS(=O)(=O)c1cc(C(=O)N/N=C/c2ccc(O)cc2O)c(SCc2ccccc2)cc1Cl` . Reported selectivity ratio?
Response: 4.1
